Assay: melting temperature; melt of duplexes
Conditions: sodium 0.0675 M; strand 1 µM
result type: Tm (°C)
Number only, in °C; omit the unit.

CGACGTGCTGCATGTGCTG+CAGCACATTCTGCACGTCG ((((((((.(.((((((((+)))))))).).)))))))): 51.8
CGACGTGCCTCATGTGCTG+CAGCACATAGAGCACGTCG ((((((((...((((((((+))))))))...)))))))): 51.6
CGACGTGCTGAATGTGCTG+CAGCACATTGGGCACGTCG ((((((((..(((((((((+)))))))))..)))))))): 53.8
CGACGTGCAAGATGTGCTG+CAGCACATGCAGCACGTCG ((((((((...((((((((+))))))))...)))))))): 52.3
CGACGTGCCCCATGTGCTG+CAGCACATGCAGCACGTCG ((((((((..(((((((((+)))))))))..)))))))): 51.9

Kindly note the recorded Tm for CGACGTGCATTATGTGCTG+CAGCACATAAAGCACGTCG ((((((((.((((((((((+)))))))))).)))))))) , which is 54.6

Kindly note the recorded Tm for CGACGTGCGTGATGTGCTG+CAGCACATAGGGCACGTCG ((((((((...((((((((+))))))))...)))))))) , which is 50.6

====

Experiment: melting temperature; melt of duplexes
Conditions: sodium 0.0675 M; strand 1 µM
result type: Tm (°C)
Number only, in °C; omit the unit.

As a guide, the following entries are already answered.
CGACGTGCTGTATGTGCTG+CAGCACATCCAGCACGTCG ((((((((((.((((((((+)))))))).)))))))))): 55.5
CGACGTGCTTCATGTGCTG+CAGCACATCGGGCACGTCG ((((((((...((((((((+))))))))...)))))))): 48.9
CGACGTGCTTAATGTGCTG+CAGCACATGATGCACGTCG ((((((((.(.((((((((+)))))))).).)))))))): 53
CGACGTGCACCATGTGCTG+CAGCACATAAGGCACGTCG ((((((((...((((((((+))))))))...)))))))): 44.1
CGACGTGCCGCATGTGCTG+CAGCACATGAGGCACGTCG (((((((((.(((((((((+))))))))).))))))))): 62.6

Kindly note the recorded Tm for CGACGTGCACGATGTGCTG+CAGCACATATAGCACGTCG ((((((((...((((((((+))))))))...)))))))) , which is 45.6

Kindly note the recorded Tm for CGACGTGCGTTATGTGCTG+CAGCACATGGAGCACGTCG ((((((((...((((((((+))))))))...)))))))) , which is 54.8

Kindly note the recorded Tm for CGACGTGCCACATGTGCTG+CAGCACATCACGCACGTCG ((((((((...((((((((+))))))))...)))))))) , which is 46.2

====

Assay: melting temperature; melt of duplexes
Settings: sodium 0.0675 M; strand 1 µM
Tm overview
Number only, in °C; omit the unit.

As a guide, the following entries are already answered.
CGACGTGCCAGATGTGCTG+CAGCACATTAGGCACGTCG (((((((((..((((((((+))))))))..))))))))): 56.2
CGACGTGCTCGATGTGCTG+CAGCACATTACGCACGTCG ((((((((...((((((((+))))))))...)))))))): 48.6
CGACGTGCGTTATGTGCTG+CAGCACATACTGCACGTCG ((((((((..(((((((((+)))))))))..)))))))): 51.6

Kindly note the recorded Tm for CGACGTGCGTCATGTGCTG+CAGCACATGGAGCACGTCG ((((((((..(((((((((+)))))))))..)))))))) , which is 58.4
